Below: a set of entries, each annotated with reported activity (Tm shift, normalised).
# measured.on: Fibroblast growth factor 22 (Homo sapiens) (UniProt Q9HCT0)
# Sequence (Q9HCT0 whole entry, looked up): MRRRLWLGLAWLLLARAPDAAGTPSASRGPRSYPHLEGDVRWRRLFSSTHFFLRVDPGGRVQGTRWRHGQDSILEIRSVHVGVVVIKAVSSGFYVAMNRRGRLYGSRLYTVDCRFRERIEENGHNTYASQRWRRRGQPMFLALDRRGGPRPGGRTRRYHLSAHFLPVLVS
# assay.remarks: binders of human FGF22 protein, primary screen, FGF22 synaptogenesis inhibitor project, biophysical, thermal shift, single point (AID 651658)
# protocol.conditions: recombinant FGF22 thermal shift, SYPRO orange fluorescence; at 9.99 µM; hits give high values; percent of sucrose octasulfate shift, DMSO zero
In all, about 340,000 compounds went through this assay and about 5,100 (1.5%) were called active. Shown is part of a subset that was picked to be rich in actives.

- molecule: "COc1ccc(NC(=O)N[C@@H]2CC[C@H](CC(=O)NC3CCC3)O[C@H]2CO)cc1"
  unit.of.measurement: "%"
  activity (Tm shift, normalised): -0.109
- molecule: "Cc1ccc(S(=O)(=O)Nc2ccc3c(c2)C(=O)N(C)[C@@H]2CC[C@@H](CC(=O)O)O[C@H]2CO3)cc1"
  unit.of.measurement: "%"
  activity (Tm shift, normalised): -0.106
- molecule: "COc1ccc(S(=O)(=O)N(CC(=O)N/N=C/c2ccc(C(=O)O)cc2)Cc2ccccc2)cc1OC"
  unit.of.measurement: "%"
  activity (Tm shift, normalised): -0.204
- molecule: "COC(=O)c1cccc(N(CC(=O)NCC2CCCO2)C(=O)CCC(=O)Nc2cc(C)on2)c1 (centres undefined)"
  unit.of.measurement: "%"
  activity (Tm shift, normalised): 43
- molecule: "O=C(O)c1ccc(/C=N/NC(=S)NCc2ccccc2)cc1"
  unit.of.measurement: "%"
  activity (Tm shift, normalised): 0.16
- molecule: "Cc1cc(NC(=O)CCC(=O)N(CC(=O)NCC2CCCO2)c2ccccc2)no1 (centres undefined)"
  unit.of.measurement: "%"
  activity (Tm shift, normalised): 0.811
- molecule: "C[C@@H]1CN([C@H](C)CO)C(=O)c2cc(N(C)C)ccc2O[C@@H]1CN(C)S(C)(=O)=O"
  unit.of.measurement: "%"
  activity (Tm shift, normalised): -0.284
- molecule: "C[C@H]1CN([C@@H](C)CO)C(=O)c2cc(N(C)C)ccc2O[C@@H]1CN(C)Cc1ccccc1"
  unit.of.measurement: "%"
  activity (Tm shift, normalised): 0.118
- molecule: "Cc1cc(C)cc(N(CC(=O)NC2CCCC2)C(=O)CCC(=O)Nc2cc(C)on2)c1"
  unit.of.measurement: "%"
  activity (Tm shift, normalised): -0.343

----------
# measured.on: Fibroblast growth factor 22 (Homo sapiens) (UniProt Q9HCT0)
# assay.remarks: binders of human FGF22 protein, primary screen, FGF22 synaptogenesis inhibitor project, biophysical, thermal shift, single point (AID 651658)
# protocol.conditions: recombinant FGF22 thermal shift, SYPRO orange fluorescence; at 9.99 µM; hits give high values; percent of sucrose octasulfate shift, DMSO zero
In all, about 340,000 compounds went through this assay and about 5,100 (1.5%) were called active. The full list was thinned out, with actives kept by preference.

- molecule: "CN(C)C(=O)c1ccc(-c2ccc([C@@H]3[C@@H](CO)N4CCCCN(CC5CC5)C[C@H]34)cc2)cc1"
  activity (Tm shift, normalised) [%]: -0.109
- molecule: "COc1ccccc1-c1cnc2c(c1)C(=O)N([C@@H](C)CO)C[C@H](C)[C@H](CN(C)C(=O)c1ccncc1)O2"
  activity (Tm shift, normalised) [%]: 0.396
- molecule: "O=C(NCc1ccccc1)[C@H]1CCCN1C(=O)[C@H]1CCCN1C(=O)N1CCOCC1"
  activity (Tm shift, normalised) [%]: 0.083
- molecule: "O=C(NCC[C@@H]1CC[C@H](NC(=O)C2CC2)[C@H](CO)O1)c1cnccn1"
  activity (Tm shift, normalised) [%]: 0.118
- molecule: "CC[N+]1(CC)CC2=Cc3ccccc3CC2C1 (stereo not given)"
  activity (Tm shift, normalised) [%]: 43.3
- molecule: "C[C@H]1CN([C@@H](C)CO)S(=O)(=O)c2ccc(-c3ccccc3F)cc2O[C@H]1CN(C)C(=O)C1CC1"
  activity (Tm shift, normalised) [%]: 0.047
- molecule: "CCCCNC(=O)N1CCN(S(C)(=O)=O)CC1"
  activity (Tm shift, normalised) [%]: 43
- molecule: "CCCNC(=O)N1CCC2(CC1)CN(C(=O)CN1CCOCC1)[C@H](CO)c1[nH]c3cc(OC)ccc3c12"
  activity (Tm shift, normalised) [%]: -0.015
- molecule: "COc1cc2c(=O)n(C)c3ccccc3c2cc1OC"
  activity (Tm shift, normalised) [%]: 0.02
- molecule: "CCOc1ncccc1C(=O)OCC(=O)Nc1cccc(S(=O)(=O)N2CCCCCC2)c1"
  activity (Tm shift, normalised) [%]: 0.065
- molecule: "CC(C)CC(=O)Nc1ccc(Cc2ccncc2)cc1"
  activity (Tm shift, normalised) [%]: -0.02
- molecule: "Cc1cc(C)c(-c2c(O)c3ccccc3n(C)c2=O)c(C)c1"
  activity (Tm shift, normalised) [%]: -0.131
- molecule: "COc1ccc2c3c(n(C)c2c1)[C@@H](CO)N(Cc1ccncc1)CC31CN(C(=O)C2CCC2)C1"
  activity (Tm shift, normalised) [%]: -0.256
- molecule: "Cc1cc(C)n(CC(=O)Nc2ccc([N+](=O)[O-])cc2)n1"
  activity (Tm shift, normalised) [%]: -0.311
- molecule: "N#C[C@@H]1[C@H](c2ccccc2)[C@H](CO)N1C(=O)CN1CCOCC1"
  activity (Tm shift, normalised) [%]: 0.041
- molecule: "O=C(c1ccc(F)cc1)n1cc(C(=S)N2CCOCC2)c2ccccc21"
  activity (Tm shift, normalised) [%]: 43.1
- molecule: "CCC(=O)N1C[C@@H](C)[C@H](OC)CN(C)C(=O)c2ccc(NC(=O)NC(C)C)cc2OC[C@H]1C"
  activity (Tm shift, normalised) [%]: -0.086
- molecule: "Cn1c2ccccc2c(=O)c2c(O)cccc21"
  activity (Tm shift, normalised) [%]: 43.7
- molecule: "CSc1ccccc1NC(=O)CN(C)CC(=O)Nc1cccc(Br)c1"
  activity (Tm shift, normalised) [%]: -0.022
- molecule: "O=C(Nc1cccc(Cl)c1)c1cc([N+](=O)[O-])ccc1N1CCN(CCO)CC1"
  activity (Tm shift, normalised) [%]: 0.039

----------
# measured.on: Fibroblast growth factor 22 (Homo sapiens) (UniProt Q9HCT0)
# assay.remarks: binders of human FGF22 protein, primary screen, FGF22 synaptogenesis inhibitor project, biophysical, thermal shift, single point (AID 651658)
# protocol.conditions: recombinant FGF22 thermal shift, SYPRO orange fluorescence; at 9.99 µM; hits give high values; percent of sucrose octasulfate shift, DMSO zero
Screen size: about 340,000 compounds; about 5,100 (1.5%) were called active. The full list was thinned out, with actives kept by preference.

- molecular.string: "O=[N+]([O-])c1cc2ccccc2nc1-c1ccccc1"
  activity (Tm shift, normalised) / %: 42.3
- molecular.string: "O=C(C[C@H]1C[C@H]2c3cc(NC(=O)Nc4ccccc4F)ccc3O[C@H]2[C@H](CO)O1)NCc1ccccn1"
  activity (Tm shift, normalised) / %: 0.07
- molecular.string: "O=C(/C=C/c1ccc2c(c1)OCCO2)c1ccc(O)cc1"
  activity (Tm shift, normalised) / %: 2.05
- molecular.string: "CCNC(=O)Nc1ccc2c(c1)C(=O)N(C)[C@@H]1CC[C@H](CC(=O)NC3CCCCC3)O[C@H]1CO2"
  activity (Tm shift, normalised) / %: -0.109
- molecular.string: "COc1ccccc1-c1cnc2c(c1)C(=O)N([C@@H](C)CO)C[C@H](C)[C@H](CN(C)CC1CCOCC1)O2"
  activity (Tm shift, normalised) / %: 0.358
- molecular.string: "CO[C@@H]1CN(C)C(=O)c2ccc(NC(=O)Nc3c(C)noc3C)cc2OC[C@H](C)N(CC2CC2)C[C@H]1C"
  activity (Tm shift, normalised) / %: 0.073
- molecular.string: "C[C@H]1CN([C@@H](C)CO)C(=O)c2cc(-c3ccncc3)cnc2O[C@H]1CN(C)C(=O)c1cccc(F)c1"
  activity (Tm shift, normalised) / %: -0.103
- molecular.string: "CN(C)C(=O)C[C@@H]1CC[C@H]2[C@@H](COC[C@H](O)CN2C(=O)c2ccncc2)O1"
  activity (Tm shift, normalised) / %: -0.192
- molecular.string: "CCOc1ccc(CCNC(=O)Nc2ccccc2)cc1OCC"
  activity (Tm shift, normalised) / %: -0.025
- molecular.string: "COc1cc(C=O)c(Br)cc1OCC(=O)NCc1ccccc1"
  activity (Tm shift, normalised) / %: -0.006
- molecular.string: "O=[N+]([O-])c1ccc(F)cc1Oc1nc(-c2cccnc2)nc2ccccc12"
  activity (Tm shift, normalised) / %: 43.2
- molecular.string: "COc1ccc2c3c(n(C)c2c1)[C@@H](CO)N(C(=O)NC1CCCC1)CC31CCN(C(C)=O)CC1"
  activity (Tm shift, normalised) / %: -0.236
- molecular.string: "Cc1ccc(C(=O)NNC(=O)c2ccc3c(c2)OCCO3)cc1"
  activity (Tm shift, normalised) / %: -0.233
- molecular.string: "CCC(=O)N1[C@@H](CO)[C@@H]2c3ccccc3N(C(=O)c3cnccn3)C[C@@H]21"
  activity (Tm shift, normalised) / %: -0.28
- molecular.string: "N#CCSc1nc(-c2ccccc2)nc2ccc(F)cc12"
  activity (Tm shift, normalised) / %: -0.193
- molecular.string: "COc1ccc(NC(=O)N(C)C[C@@H]2Oc3ccc(NS(=O)(=O)c4ccc(Cl)cc4)cc3C(=O)N([C@H](C)CO)C[C@@H]2C)cc1"
  activity (Tm shift, normalised) / %: 0.119
- molecular.string: "Cc1noc(C)c1S(=O)(=O)Nc1ccc2c(c1)C(=O)N([C@@H](C)CO)C[C@@H](C)[C@H](CN(C)C(=O)NC(C)C)OCCCC[C@@H](C)O2"
  activity (Tm shift, normalised) / %: -0.227
- molecular.string: "CCCNCc1cc(OCC)c(OCC(=O)Nc2ccccc2)cc1Br"
  activity (Tm shift, normalised) / %: 44
- molecular.string: "CCN(CC(=O)NC(=O)NCc1ccccc1)Cc1nc2ccccc2c(=O)[nH]1"
  activity (Tm shift, normalised) / %: 43
